Reported abundance fitness by item:
B1: Far upstream element-binding protein 3, residues 75 to 150; numbered along this chain, Q96I24 (parent)
chain: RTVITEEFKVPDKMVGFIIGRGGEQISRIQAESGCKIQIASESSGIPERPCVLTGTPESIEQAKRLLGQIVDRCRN

# Variants of: B1
# experiment.description: abundance fitness (aPCA) (normalised: wild type 0, dead -1); higher = more abundant; growth selection in yeast, the domain comes from the species named
# run.parameters: Homo sapiens
When you answer, write just the number.

{"variant.notation": "G68I", "abundance fitness": -0.092}
{"variant.notation": "Q62G", "abundance fitness": -0.055}
{"variant.notation": "T54A", "abundance fitness": -0.11}
{"variant.notation": "K13Q", "abundance fitness": -0.017}
{"variant.notation": "V52D", "abundance fitness": -0.16}
{"variant.notation": "E24M", "abundance fitness": -0.019}
{"variant.notation": "L67S", "abundance fitness": -0.811}
{"variant.notation": "D12F", "abundance fitness": -0.186}

Consider now this further variant.
QUERY: I'd like to know its abundance fitness. The variant in question is `K64L`
RESULT: -0.491
